TEST SYSTEM: Genome polyprotein (Coxsackievirus B3 (strain Nancy), UniProt P03313)
Sequence (P03313 1541-1723 limits assumed): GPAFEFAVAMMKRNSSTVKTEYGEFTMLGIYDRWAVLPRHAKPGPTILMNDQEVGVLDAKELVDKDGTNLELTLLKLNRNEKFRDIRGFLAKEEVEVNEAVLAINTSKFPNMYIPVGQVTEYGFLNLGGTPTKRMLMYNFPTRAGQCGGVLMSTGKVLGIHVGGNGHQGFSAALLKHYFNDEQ
ASSAY TEXT: Inhibition of Coxsackievirus B3 protease 3c using NMA-EALFQGPPVK-DNP as substrate incubated for 5 mins prior to substrate addition measured after 1 hr by FRET assay
METRIC: IC50 (nM)
Numbers only, in nM.

In [3]: df
Out[3]:
                      smiles_representation                               test_system  unit_label  obs_value
0  Cc1cc(C(=O)N[C@H](C(=O)N[C@@H](Cc2ccc(F)cc2)C(=O)N[C@@H](/C=C/C(=O)OCc2ccc3cn[nH]c3c2)CCC(N)=O)C(C)C)no1  Genome polyprotein (Coxsackievirus B3 (strain Nancy), UniProt P03313)          nM        390
1  Cc1cc(C(=O)N[C@H](C(=O)N[C@@H](Cc2ccc(F)cc2)C(=O)N[C@@H](/C=C/C(=O)OCc2nc3cc(Cl)ccc3[nH]2)CCC(N)=O)C(C)C)no1  Genome polyprotein (Coxsackievirus B3 (strain Nancy), UniProt P03313)          nM        650
2  Cc1cc(C(=O)N[C@H](C(=O)N[C@@H](Cc2ccc(F)cc2)C(=O)N[C@@H](/C=C/C(=O)OCc2ccc3cnccc3c2)CCC(N)=O)C(C)C)no1  Genome polyprotein (Coxsackievirus B3 (strain Nancy), UniProt P03313)          nM        240

Below is a list of molecules. For each, state its recorded IC50.
1. Cc1cc(C(=O)N[C@H](C(=O)N[C@@H](Cc2ccc(F)cc2)C(=O)N[C@@H](/C=C/C(=O)OCc2cn3cccc(C)c3n2)CCC(N)=O)C(C)C)no1
2. Cc1cc(C(=O)N[C@H](C(=O)N[C@@H](Cc2ccc(F)cc2)C(=O)N[C@@H](/C=C/C(=O)OCc2cnc3ccccc3c2)CCC(N)=O)C(C)C)no1
3. Cc1cc(C(=O)N[C@H](C(=O)N[C@@H](Cc2ccc(F)cc2)C(=O)N[C@@H](/C=C/C(=O)OCc2cccc3cnccc23)CCC(N)=O)C(C)C)no1
4. Cc1cc(C(=O)N[C@H](C(=O)N[C@@H](Cc2ccc(F)cc2)C(=O)N[C@@H](/C=C/C(=O)OCc2nc3ccccc3[nH]2)CCC(N)=O)C(C)C)no1
5. Cc1cc(C(=O)N[C@H](C(=O)N[C@@H](Cc2ccc(F)cc2)C(=O)N[C@@H](/C=C/C(=O)OCc2ccc3[nH]ncc3c2)CCC(N)=O)C(C)C)no1
6. Cc1cc(C(=O)N[C@H](C(=O)N[C@@H](Cc2ccc(F)cc2)C(=O)N[C@@H](/C=C/C(=O)OCc2cccc3ncccc23)CCC(N)=O)C(C)C)no1
7. Cc1cc(C(=O)N[C@H](C(=O)N[C@@H](Cc2ccc(F)cc2)C(=O)N[C@@H](/C=C/C(=O)OCc2ccc3ccccc3c2)CCC(N)=O)C(C)C)no1
8. Cc1cc(C(=O)N[C@H](C(=O)N[C@@H](Cc2ccc(F)cc2)C(=O)N[C@@H](/C=C/C(=O)OCc2nc(-c3ccncc3)no2)CCC(N)=O)C(C)C)no1

Result:
1. 170
2. 250
3. 270
4. 240
5. 180
6. 280
7. 410
8. 650

Below is a list of molecules. For each, state its recorded IC50.
1. Cc1cc(C(=O)N[C@H](C(=O)N[C@@H](Cc2ccc(F)cc2)C(=O)N[C@@H](/C=C/C(=O)OCc2cn3c(C)cccc3n2)CCC(N)=O)C(C)C)no1
2. Cc1cc(C(=O)N[C@H](C(=O)N[C@@H](Cc2ccc(F)cc2)C(=O)N[C@@H](/C=C/C(=O)OCc2ccnc3ccccc23)CCC(N)=O)C(C)C)no1
3. Cc1cc(C(=O)N[C@H](C(=O)N[C@@H](Cc2ccc(F)cc2)C(=O)N[C@@H](/C=C/C(=O)OCc2ccc3nc[nH]c3c2)CCC(N)=O)C(C)C)no1

Result:
1. 160
2. 130
3. 470
